System: 519858-162-T-J1-PDC complex spheroid growth, % test/control
PROCEDURE DETAILS: Anticancer human tumor 519858-162-T-J1-PDC patient-derived colon adenocarcinoma cell line growth inhibition [Asc]
RUN CONDITIONS: curve of first compound; second compound 0.00949 µM
pIC50: −log10 of the molar value.
Below, each of the compounds is paired with its reported pIC50 value.

Look over these answered cases.
O=C(c1cc(Cc2n[nH]c(=O)c3ccccc23)ccc1F)N1CCN(C(=O)C2CC2)CC1 + CCN1C(C(=O)NC23CCC(C(=O)O)(CC2)CC3)C(c2cccc(Cl)c2F)C2(C(=O)Nc3cc(Cl)ccc32)C12CCCCC2    < 5.00
CNC(C)C(=O)NC1CN(S(=O)(=O)c2cccc(S(=O)(=O)N3CCC4CCC(C(=O)NC(c5ccccc5)c5ccccc5)N4C(=O)C(NC(=O)C(C)NC)C3)c2)CCC2CCC(C(=O)NC(c3ccccc3)c3ccccc3)N2C1=O (centres undefined) + CCN1C(C(=O)NC23CCC(C(=O)O)(CC2)CC3)C(c2cccc(Cl)c2F)C2(C(=O)Nc3cc(Cl)ccc32)C12CCCCC2    > 8.50
O=C(c1ccc(F)c(F)c1Nc1ccc(I)cc1F)N1CC(O)([C@@H]2CCCCN2)C1 + CCN1C(C(=O)NC23CCC(C(=O)O)(CC2)CC3)C(c2cccc(Cl)c2F)C2(C(=O)Nc3cc(Cl)ccc32)C12CCCCC2    6.67

Please examine the following record next.
Looking up C#Cc1c(F)ccc2cc(O)cc(-c3ncc4c(N5CC6CCC(C5)N6)nc(OCC56CCCN5CC(F)C6)nc4c3F)c12 (centres undefined) + CCN1C(C(=O)NC23CCC(C(=O)O)(CC2)CC3)C(c2cccc(Cl)c2F)C2(C(=O)Nc3cc(Cl)ccc32)C12CCCCC2 , I see its pIC50 listed as < 5.00

====

Tested on: 519858-162-T-J1-PDC complex spheroid growth, % test/control
PROCEDURE DETAILS: Anticancer human tumor 519858-162-T-J1-PDC cell line growth inhibition [Asc];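 also: seven day drug exposure begun three days after spheroid seeding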;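 as to viability, T/C: 100% = DMSO vehicle wells and lower values mean less viable spheroid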
RUN CONDITIONS: second compound 0.0316 µM; first compound 0.1 µM; stronger effect = lower value
OBSERVABLE: viability, T/C (%)
Enter your answer as a number in %; do not include the unit.

Look over these answered cases.
C#Cc1c(F)ccc2cc(O)cc(-c3ncc4c(N5CC6CCC(C5)N6)nc(OCC56CCCN5CC(F)C6)nc4c3F)c12 (configuration not stated) + CNC(C)C(=O)NC1CN(S(=O)(=O)c2cccc(S(=O)(=O)N3CCC4CCC(C(=O)NC(c5ccccc5)c5ccccc5)N4C(=O)C(NC(=O)C(C)NC)C3)c2)CCC2CCC(C(=O)NC(c3ccccc3)c3ccccc3)N2C1=O    82.4
CCN1CCN(Cc2ccc(Nc3ncc(F)c(-c4cc(F)c5nc(C)n(C(C)C)c5c4)n3)nc2)CC1 + Cc1c(S(C)(=O)=O)c(-c2cc(F)cc(N3CCN(c4ccc(NS(=O)(=O)c5ccc(NC(CCN6CCC(C(=O)OCCCP(=O)(O)O)CC6)CSc6ccccc6)c(S(=O)(=O)C(F)(F)F)c5)cc4)CC3)c2)c(-c2ccc(Cl)cc2)n1C(C)C    92
C=C(F)C(=O)N1CCN(c2nc(OCC3CCCN3C)nc3c2CCN(c2cccc4cccc(Cl)c24)C3)CC1CC#N (configuration not stated) + CNC(C)C(=O)NC1CN(S(=O)(=O)c2cccc(S(=O)(=O)N3CCC4CCC(C(=O)NC(c5ccccc5)c5ccccc5)N4C(=O)C(NC(=O)C(C)NC)C3)c2)CCC2CCC(C(=O)NC(c3ccccc3)c3ccccc3)N2C1=O    83.7
C=CC(=O)N1CCN(c2nc(=O)n(-c3c(C)ccnc3C(C)C)c3nc(-c4c(O)cccc4F)c(F)cc23)C(C)C1 (configuration not stated) + CNC(C)C(=O)NC1CN(S(=O)(=O)c2cccc(S(=O)(=O)N3CCC4CCC(C(=O)NC(c5ccccc5)c5ccccc5)N4C(=O)C(NC(=O)C(C)NC)C3)c2)CCC2CCC(C(=O)NC(c3ccccc3)c3ccccc3)N2C1=O    95.4
Cn1ncnc1[C@H]1c2n[nH]c(=O)c3cc(F)cc(c23)N[C@@H]1c1ccc(F)cc1 + Cc1c(S(C)(=O)=O)c(-c2cc(F)cc(N3CCN(c4ccc(NS(=O)(=O)c5ccc(NC(CCN6CCC(C(=O)OCCCP(=O)(O)O)CC6)CSc6ccccc6)c(S(=O)(=O)C(F)(F)F)c5)cc4)CC3)c2)c(-c2ccc(Cl)cc2)n1C(C)C    95.4
O=C(c1cc(Cc2n[nH]c(=O)c3ccccc23)ccc1F)N1CCN(C(=O)C2CC2)CC1 + CNC(C)C(=O)NC1CN(S(=O)(=O)c2cccc(S(=O)(=O)N3CCC4CCC(C(=O)NC(c5ccccc5)c5ccccc5)N4C(=O)C(NC(=O)C(C)NC)C3)c2)CCC2CCC(C(=O)NC(c3ccccc3)c3ccccc3)N2C1=O    73.4

Please examine the following record next.
Looking up Cn1ncnc1[C@H]1c2n[nH]c(=O)c3cc(F)cc(c23)N[C@@H]1c1ccc(F)cc1 + CNC(C)C(=O)NC1CN(S(=O)(=O)c2cccc(S(=O)(=O)N3CCC4CCC(C(=O)NC(c5ccccc5)c5ccccc5)N4C(=O)C(NC(=O)C(C)NC)C3)c2)CCC2CCC(C(=O)NC(c3ccccc3)c3ccccc3)N2C1=O , I see its viability, T/C listed as 77.6

====

Below, each of the compounds is paired with its reported viability, T/C value.
Test system: 519858-162-T-J1-PDC complex spheroid growth, % test/control
PROCEDURE DETAILS: Anticancer human tumor 519858-162-T-J1-PDC cell line growth inhibition [Asc];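 also: seven day drug exposure begun three days after spheroid seeding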;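 as to viability, T/C: 100% = DMSO vehicle wells and lower values mean less viable spheroid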
RUN CONDITIONS: second compound 0.316 µM; first compound 0.0316 µM; stronger effect = lower value
Enter your answer as a number in %; do not include the unit.

Look over these answered cases.
NC1CCC(NC2CC2c2ccccc2)CC1 (centres undefined) + Cc1c(S(C)(=O)=O)c(-c2cc(F)cc(N3CCN(c4ccc(NS(=O)(=O)c5ccc(NC(CCN6CCC(C(=O)OCCCP(=O)(O)O)CC6)CSc6ccccc6)c(S(=O)(=O)C(F)(F)F)c5)cc4)CC3)c2)c(-c2ccc(Cl)cc2)n1C(C)C    85.5
C=CC(=O)N1CCN(c2nc(=O)n(-c3c(C)ccnc3C(C)C)c3nc(-c4c(O)cccc4F)c(F)cc23)C(C)C1 (centres undefined) + Cc1c(S(C)(=O)=O)c(-c2cc(F)cc(N3CCN(c4ccc(NS(=O)(=O)c5ccc(NC(CCN6CCC(C(=O)OCCCP(=O)(O)O)CC6)CSc6ccccc6)c(S(=O)(=O)C(F)(F)F)c5)cc4)CC3)c2)c(-c2ccc(Cl)cc2)n1C(C)C    89.7
C#Cc1c(F)ccc2cc(O)cc(-c3ncc4c(N5CC6CCC(C5)N6)nc(OCC56CCCN5CC(F)C6)nc4c3F)c12 (centres undefined) + CNC(C)C(=O)NC1CN(S(=O)(=O)c2cccc(S(=O)(=O)N3CCC4CCC(C(=O)NC(c5ccccc5)c5ccccc5)N4C(=O)C(NC(=O)C(C)NC)C3)c2)CCC2CCC(C(=O)NC(c3ccccc3)c3ccccc3)N2C1=O    78.8

Please examine the following record next.
Looking up Cn1ncnc1[C@H]1c2n[nH]c(=O)c3cc(F)cc(c23)N[C@@H]1c1ccc(F)cc1 + Cc1c(S(C)(=O)=O)c(-c2cc(F)cc(N3CCN(c4ccc(NS(=O)(=O)c5ccc(NC(CCN6CCC(C(=O)OCCCP(=O)(O)O)CC6)CSc6ccccc6)c(S(=O)(=O)C(F)(F)F)c5)cc4)CC3)c2)c(-c2ccc(Cl)cc2)n1C(C)C , I see its viability, T/C listed as 83.7

====

Tested on: 519858-162-T-J1-PDC complex spheroid growth, % test/control
PROCEDURE DETAILS: Anticancer human tumor 519858-162-T-J1-PDC cell line growth inhibition [Asc];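 also: seven day drug exposure begun three days after spheroid seeding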;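 as to viability, T/C: 100% = DMSO vehicle wells and lower values mean less viable spheroid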
RUN CONDITIONS: second compound 0.03 µM; first compound 0.1 µM; stronger effect = lower value
OBSERVABLE: viability, T/C (%)
Enter your answer as a number in %; do not include the unit.

O=C(c1ccc(F)c(F)c1Nc1ccc(I)cc1F)N1CC(O)([C@@H]2CCCCN2)C1 + CCN1C(C(=O)NC23CCC(C(=O)O)(CC2)CC3)C(c2cccc(Cl)c2F)C2(C(=O)Nc3cc(Cl)ccc32)C12CCCCC2    56
C=C(F)C(=O)N1CCN(c2nc(OCC3CCCN3C)nc3c2CCN(c2cccc4cccc(Cl)c24)C3)CC1CC#N (stereo not given) + CCN1C(C(=O)NC23CCC(C(=O)O)(CC2)CC3)C(c2cccc(Cl)c2F)C2(C(=O)Nc3cc(Cl)ccc32)C12CCCCC2    84
O=C(c1cc(Cc2n[nH]c(=O)c3ccccc23)ccc1F)N1CCN(C(=O)C2CC2)CC1 + CCN1C(C(=O)NC23CCC(C(=O)O)(CC2)CC3)C(c2cccc(Cl)c2F)C2(C(=O)Nc3cc(Cl)ccc32)C12CCCCC2    82.9

Looking up NC1CCC(NC2CC2c2ccccc2)CC1 (stereo not given) + CCN1C(C(=O)NC23CCC(C(=O)O)(CC2)CC3)C(c2cccc(Cl)c2F)C2(C(=O)Nc3cc(Cl)ccc32)C12CCCCC2 , I see its viability, T/C listed as 110

Looking up C=CC(=O)N1CCN(c2nc(=O)n(-c3c(C)ccnc3C(C)C)c3nc(-c4c(O)cccc4F)c(F)cc23)C(C)C1 (stereo not given) + CCN1C(C(=O)NC23CCC(C(=O)O)(CC2)CC3)C(c2cccc(Cl)c2F)C2(C(=O)Nc3cc(Cl)ccc32)C12CCCCC2 , I see its viability, T/C listed as 87.7

All values here come from PubChem BioAssay AID1963421.
